Test system: Staphylococcus aureus
testMethodNotes: Antibacterial activity against Staphylococcus aureus by NCCLS broth microdilution method
Format: functional

{"compound": "CC1CC2C(=NO)C(C1)C(c1ccccc1Cl)NC2c1ccccc1Cl (stereo in doubt; 52b)", "MIC90 [µg/mL]": 16}
{"compound": "CON=C1C2CC(C)CC1C(c1ccccc1Cl)NC2c1ccccc1Cl (stereo in doubt; 58b)", "MIC90 [µg/mL]": 8}
{"compound": "CON=C1C2CC(C)CC1C(c1cccc(F)c1)NC2c1cccc(F)c1 (stereo in doubt; 56b)", "MIC90 [µg/mL]": 32}
{"compound": "CC1CC2C(=NO)C(C1)C(c1ccccc1F)NC2c1ccccc1F (stereo in doubt; 49a)", "MIC90 [µg/mL]": 8}
